tested on: BT-549 breast
In this exercise, the only acceptable responses are class 1 = active, class 0 = inactive

Record excerpt, results attached:
{"STRUCTURE_STRING": "Cn1cccc1-c1cc(-c2cccs2)[nH]c(=O)c1C#N", "CLASSIFICATION": "class 0"}
{"STRUCTURE_STRING": "S=c1nc2[nH]ncc2c(N/N=C/c2ccccc2)[nH]1", "CLASSIFICATION": "class 0"}
{"STRUCTURE_STRING": "COc1ccc(/C=C2\\CN(Cc3cn(CCCNc4ccnc5cc(Cl)ccc45)nn3)C/C(=C\\c3ccc(OC)c(OC)c3)C2=O)cc1OC", "CLASSIFICATION": "class 0"}
{"STRUCTURE_STRING": "O=C1c2cc3c(cc2-c2c1c1ccc(Cl)cc1c(=O)n2C[C@H](O)[C@@H](O)[C@H](O)CO)OCO3", "CLASSIFICATION": "class 1"}
{"STRUCTURE_STRING": "COc1cc(/C=C/C(=O)c2ccc(Nc3ncnc4ccccc34)cc2)cc(OC)c1", "CLASSIFICATION": "class 0"}

Q: In this assay, the call recorded for `O=C1C(=O)c2ccccc2-c2ccccc21` was what?
Result: class 0

Q: What is the recorded call for this compound in the test? `C=C1C(=O)O[C@H]2[C@H]1CC/C(Cn1cc(Cn3ccc4ccccc43)nn1)=C\CC[C@@]1(C)O[C@@H]21`
Result: class 0

Q: Hey, what did the test say about `CCOC(=O)/C(=C/c1ccc([N+](=O)[O-])cc1)C(=O)c1ccccc1` ?
Result: class 0

Q: What classification did `CCCCCCCC/C=C/CCCCCCCC1=NC(C)(C)CN1C(C)C` end up with in this test?
Result: class 0

Q: So what was the verdict on `N=C(N)c1ccc(-c2ccc(-c3ccc(Cl)cc3)o2)o1` in this test?
Result: class 0

Q: Dear colleague, could you share the recorded outcome for `CCN(CC)CCOc1ccc(/C(=C(\C)Cc2ccc(OC)cc2)c2ccc(OC(=O)NCc3ccccc3)cc2)cc1` when you have a moment?
Result: class 0

Q: Record request — test call for `ClCc1ccc(-c2ccc(Cn3cnc4c(Cl)nc(Cl)nc43)cc2)cc1`
Result: class 0

Q: Tell me the assay call for `O=C1/C(=C\C(Cl)=C/c2ccc([N+](=O)[O-])cc2)SC(=S)N1CCc1ccc(O)cc1` please.
Result: class 1

Q: Give the logged outcome of this assay for the following compound: `CCOC(=O)c1ccc(N(CCOS(C)(=O)=O)CCOS(C)(=O)=O)cc1C`
Result: class 0

Q: Fill in: this test's call for `O=C(Nc1nccs1)c1cc2c(cc1Cl)Sc1nccn1S2(=O)=O` is ___
Result: class 0
